Known IC50 of a selection of molecules
TARGET_OR_TEST_SYSTEM: UniProtKB Q9Y233
Sequence (Q9Y233 290-1055 limits assumed): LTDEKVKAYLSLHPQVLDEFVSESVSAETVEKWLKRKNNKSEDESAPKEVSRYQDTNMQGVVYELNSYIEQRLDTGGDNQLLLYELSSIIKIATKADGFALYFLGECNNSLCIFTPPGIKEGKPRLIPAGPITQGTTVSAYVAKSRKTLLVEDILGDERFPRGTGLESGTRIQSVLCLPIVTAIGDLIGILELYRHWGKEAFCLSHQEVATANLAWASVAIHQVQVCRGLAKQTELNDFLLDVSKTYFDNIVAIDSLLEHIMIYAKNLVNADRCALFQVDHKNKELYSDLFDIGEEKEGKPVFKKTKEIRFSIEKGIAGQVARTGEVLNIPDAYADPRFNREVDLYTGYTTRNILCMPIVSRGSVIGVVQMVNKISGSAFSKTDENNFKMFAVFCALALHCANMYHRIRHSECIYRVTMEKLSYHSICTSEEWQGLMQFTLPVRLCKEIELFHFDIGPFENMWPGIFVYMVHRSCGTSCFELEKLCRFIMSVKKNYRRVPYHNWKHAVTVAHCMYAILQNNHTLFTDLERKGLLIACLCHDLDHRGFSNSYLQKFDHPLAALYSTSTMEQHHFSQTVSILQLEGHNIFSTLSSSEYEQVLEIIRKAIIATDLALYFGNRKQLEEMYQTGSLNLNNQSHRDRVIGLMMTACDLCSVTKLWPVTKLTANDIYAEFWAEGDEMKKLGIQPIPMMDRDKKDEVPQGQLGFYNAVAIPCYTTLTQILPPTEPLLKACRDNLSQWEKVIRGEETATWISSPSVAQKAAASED
EXPERIMENTAL_PROTOCOL: Measurement of PDE activity (recombinant enzyme, HTRF cAMP kit)
Assay type: biochemical
MEASUREMENT_SETUP: Table 1, substrate 20 nM for PDE10, 60 minutes at 29 C, read-out: IC50
Structures can show the parent of a compound that is named as a salt.

Here's what some known entries look like.
O=c1c2c(C3=COCC3)cccc2ccn1C1CC1c1ccc2ccccc2n1 (stereo not drawn) [Example 269]: < 100 nM
O=c1c2c(-c3ccncc3)csc2cnn1CCc1ccc2ccccc2n1 [Example 3]: < 100 nM

IN: Look up IC50 for this molecule: O=c1c2c(-c3ccncc3)csc2ccn1CCc1cn2ccccc2n1 [Example 210, hydrochloride]
OUT: < 100 nM
